Tested on: SARS-COV-2
testDescription: microbe, parasite or virus in culture
Assay type: cell-based
Set-up: unit not given here
experimentalSetup: SARS-COV-2; values >50 assumed to be 50
# note: boundary value 20 maps to condition not met; SI (Selectivity Index, CC50/IC50) below it maps to condition met

compound="CCCCN(C)c1ncc(-c2c3c(cc4cc(OC)c(OC)cc24)COC3=O)cn1.Cl [Example 76]" classlabel="condition not met"
compound="COc1cc2cccc(-c3c4c(cc5cc(OC)c(OC)cc35)COC4=O)c2cn1 [Example 133]" classlabel="condition met"
compound="COC[C@@H]1CCCN1c1ncc(-c2c3c(cc4cc(OC)c(OC)cc24)COC3=O)cn1.Cl [Example 97]" classlabel="condition met"
compound="COc1cc2cc3c(c(-c4cnc(N5CCN(C)CC5)nc4)c2cc1OC)C(=O)OC3 [Example 7]" classlabel="condition met"
compound="CNc1ncc(-c2c3c(cc4cc(OC)c(OC)cc24)COC3=O)cn1 [Example 108]" classlabel="condition met"
compound="COc1cc2cc3c(c(-c4cnc(N5CCOCC5)nc4)c2cc1OC)C(=O)OC3 [Example 51]" classlabel="condition not met"
compound="COc1cc2cc3c(c(-c4cnc(N)cn4)c2cc1OC)C(=O)OC3 [Example 30]" classlabel="condition met"
compound="COc1cc2cc3c(c(-c4cnc(N5C[C@@H](C)O[C@@H](C)C5)nc4)c2cc1OC)C(=O)OC3 [Example 8]" classlabel="condition met"

* * *

Test system: SARS-COV-2
testDescription: microbe, parasite or virus in culture
Type: cell-based
Parameters: unit not given here
experimentalSetup: SARS-COV-2; values >50 assumed to be 50
Structures can show the parent of a compound that is named as a salt.
measuredQuantity: SI (Selectivity Index, CC50/IC50)

compound=COc1cc2cc3c(c(-c4ccc(N(C)c5ccc(C#N)cc5)nc4)c2cc1OC)C(=O)OC3.Cl result=65.75
compound="COc1cc2cc3c(c(-c4cnc(N5CC(C)CC(C)C5)nc4)c2cc1OC)C(=O)OC3 (centres unmarked)" result=12.07
compound=CCN(Cc1cccnc1)c1ccc(-c2c3c(cc4cc(OC)c(OC)cc24)COC3=O)cc1 result=12.17
compound=COc1cc2cc3c(c(-c4ccc5[nH]ccc5c4)c2cc1OC)C(=O)OC3 result=12.40
compound=COc1cc2c(OC)c3c(c(-c4ccc5c(c4)OC(F)(F)O5)c2cc1OC)COC3=O result=1.00
compound=COc1cc2cc3c(c(-c4ccc5c(CN6CCOCC6)c[nH]c5c4)c2cc1OC)C(=O)OC3.Cl result=8.39
compound=CCNc1ccc(-c2c3c(cc4cc(OC)c(OC)cc24)COC3=O)cc1 result=10.40
compound="COc1cc2cc3c(c(-c4cnc(N(C)CCN5CCOCC5)nc4)c2cc1OC)C(=O)OC3 [Example 111, hydrochloride]" result=2.37

* * *

System: SARS-COV-2
testDescription: microbe, parasite or virus in culture
Format: cell-based
Parameters: unit not given here
experimentalSetup: SARS-COV-2; values >50 assumed to be 50
Classify by measured SI (Selectivity Index, CC50/IC50): true (1) if it is equal to or exceeds 10, false (0) if it is smaller.

molecularstring=COc1cc2cc3c(c(-c4ccc(N(C)CC(OC)OC)nc4)c2cc1OC)C(=O)OC3 targetdesc=SARS-COV-2 classlabel="true (1)"
molecularstring=CCN(CCOC)c1ccc(-c2c3c(cc4cc(OC)c(OC)cc24)COC3=O)cc1 targetdesc=SARS-COV-2 classlabel="true (1)"
molecularstring=COc1cc2cc3c(c(-c4cc(C)nc5c(C(F)(F)F)cccc45)c2cc1OC)C(=O)OC3 targetdesc=SARS-COV-2 classlabel="false (0)"
molecularstring=COc1cc2cc3c(c(-c4cnc(NC5CCCC5)nc4)c2cc1OC)C(=O)OC3.Cl targetdesc=SARS-COV-2 classlabel="false (0)"
molecularstring=COc1cc2cc3c(c(-c4cnc(N(C)CCC5OCCO5)nc4)c2cc1OC)C(=O)OC3 targetdesc=SARS-COV-2 classlabel="false (0)"
molecularstring=COc1cc2cc3c(c(-c4ccc(N(C)CCc5cn(C)c6ccccc56)nc4)c2cc1OC)C(=O)OC3 targetdesc=SARS-COV-2 classlabel="true (1)"
molecularstring=COc1cc2cc3c(c(-c4cnc(N[C@@H](C)c5ccc(F)cc5)nc4)c2cc1OC)C(=O)OC3 targetdesc=SARS-COV-2 classlabel="false (0)"
